Attribution: ChEMBL document CHEMBL5338794

# experimental protocol: Cmax in CD-1 mouse at 10 mg/kg,po and measured upto 24 hrs by LC-MS/MS analysis
# Format: ADME, organism-based
# Parameters: dose 10 mg/kg, time < 24 hrs, route po
# study conditions: in vivo

record smiles: O=C(Nc1ccc(Cl)c(Cl)c1)c1ccc(N2CCNCC2)c([N+](=O)[O-])c1
Cmax: 1000 nM

----------
# experimental protocol: Metabolic stability in CD-1 mouse liver microsomes assessed as half life at 1 uM and measured upto 60 mins in presence of NADPH regenerating system by LC-MS/MS analysis
# Assay type: ADME, Microsome
# study conditions: 1 h
t1/2 for assorted compounds

record smiles: Cc1ccc(-c2nc3ccccc3s2)cc1NC(=O)c1cc([N+](=O)[O-])c(N2CCN(C)CC2)cc1Cl
t1/2: 13 min
//
record smiles: Cc1cc(Cl)c(Cl)cc1NC(=O)c1ccc(N2CCNCC2)c([N+](=O)[O-])c1
t1/2: 67 min
//
record smiles: O=C(Nc1cncc(-c2nc3ccccc3o2)c1)c1ccc(N2CCNCC2)c([N+](=O)[O-])c1
t1/2: 138 min
//
record smiles: Cc1ccc(-c2nc3ccccc3s2)cc1NC(=O)c1cc([N+](=O)[O-])c(F)cc1F
t1/2: 27 min
//
record smiles: Cc1cc(Cl)c(Cl)cc1NC(=O)c1cc([N+](=O)[O-])c(N2CCNCC2)cc1Cl
t1/2: 56 min
//
record smiles: O=C(Nc1cncc(-c2nc3ccccc3s2)c1)c1cc([N+](=O)[O-])c(N2CCNCC2)cc1Cl
t1/2: 130 min
//
record smiles: O=C(Nc1cccc(-c2ncco2)c1)c1cc([N+](=O)[O-])c(F)cc1F
t1/2: 0.6 min

----------
# experimental protocol: Cmax in CD-1 mouse at 3 mg/kg,iv and measured upto 24 hrs by LC-MS/MS analysis
# Assay type: ADME, organism-based
# Design: dose 3 mg/kg, time < 24 hrs, route iv
# study conditions: in vivo
property label: Cmax (nM)

record smiles: O=C(Nc1ccc(Cl)c(Cl)c1)c1ccc(N2CCNCC2)c([N+](=O)[O-])c1
recorded value: 1950

----------
# experimental protocol: Kinetic aqueous solubility of the compound in PBS at pH 7.4 incubated for 18 hrs by LC-MS analysis
# Assay type: physicochemical
# study conditions: read-out: Kinetic_solubility
property label: log10 solubility kinetic at 18 h (log10 of the value in µM)

record smiles: O=C(Nc1cccc(-c2ncco2)c1)c1cc([N+](=O)[O-])c(F)cc1F
recorded value: 0.97
//
record smiles: O=C(Nc1ccc(Cl)c(Cl)c1)c1ccc(N2CCNCC2)c([N+](=O)[O-])c1
recorded value: 1.66
//
record smiles: Cc1cc(Cl)c(Cl)cc1NC(=O)c1ccc(N2CCNCC2)c([N+](=O)[O-])c1
recorded value: 1.49
//
record smiles: Cc1cc(Cl)c(Cl)cc1NC(=O)c1cc([N+](=O)[O-])c(N2CCNCC2)cc1Cl
recorded value: 0.72
//
record smiles: Cc1cc(Cl)c(Cl)cc1NC(=O)c1ccc(N2CCNCC2)nc1
recorded value: 2.27
//
record smiles: Cc1ccc(-c2nc3ccccc3o2)cc1NC(=O)c1cc([N+](=O)[O-])c(N2CCNCC2)cc1Cl
recorded value: 1.11
//
record smiles: O=C(Nc1cncc(-c2nc3ccccc3o2)c1)c1ccc(N2CCNCC2)c([N+](=O)[O-])c1
recorded value: 1.18
//
record smiles: Cc1cc(Cl)c(Cl)cc1NC(=O)c1ccc(N2CCNCC2)c(C#N)c1
recorded value: 0.56

----------
# experimental protocol: Kinetic aqueous solubility of the compound in PBS at pH 7.4 incubated for 18 hrs by LC-MS analysis
# Assay type: physicochemical
# study conditions: read-out: Kinetic_solubility
property label: solubility kinetic at 18 h (µM)

record smiles: O=C(Nc1cncc(-c2nc3ccccc3s2)c1)c1cc([N+](=O)[O-])c(N2CCNCC2)cc1Cl
unit abbreviation: µM
recorded value: 6.3

record smiles: Cc1ccc(-c2nc3ccccc3s2)cc1NC(=O)c1cc([N+](=O)[O-])c(F)cc1F
unit abbreviation: µM
recorded value: 22

record smiles: O=C(Nc1cncc(-c2nc3ccccc3o2)c1)c1cc([N+](=O)[O-])c(N2CCNCC2)cc1Cl
unit abbreviation: µM
recorded value: 12.4

----------
# experimental protocol: Metabolic stability in CD-1 mouse liver microsomes assessed as half life at 1 uM and measured upto 60 mins in presence of NADPH regenerating system by LC-MS/MS analysis
# Format: ADME, Microsome
# study conditions: 1 h
t1/2 for assorted molecules
property label: t1/2 (h)

record smiles: Cc1ccc(-c2nc3ccccc3o2)cc1NC(=O)c1cc([N+](=O)[O-])c(N2CCNCC2)cc1Cl
recorded value: 2

record smiles: O=C(Nc1cncc(-c2nc3ccccc3o2)c1)c1cc([N+](=O)[O-])c(N2CCNCC2)cc1Cl
recorded value: 2.17

record smiles: Cc1cc(Cl)c(Cl)cc1NC(=O)c1ccc(N2CCNCC2)c(C#N)c1
recorded value: 0.8

record smiles: Cc1cc(Cl)c(Cl)cc1NC(=O)c1ccc(N2CCNCC2)nc1
recorded value: 0.5

record smiles: O=C(Nc1ccc(Cl)c(Cl)c1)c1ccc(N2CCNCC2)c([N+](=O)[O-])c1
recorded value: 1.92
